Test system: L1210 leukemia ip in BDF1 mice, survival T/C
Assay: NCI In Vivo Anticancer Drug Screen. Data for tumor model L1210 Leukemia (intraperitoneal) in B6D2F1 (BDF1) mice
Conditions: endpoint: mean survival time; dose: 400.0 mg/kg/injection; schedule: Q04DX003 (ip); vehicle: acetone; higher = longer survival
Inconclusive results and toxic doses are left out.
Measurement Type: T/C

# Chem Smiles, Result
data = [
    ("C=CCC(Cc1cc(CC(CC=C)(C(=O)OCC)C(=O)OCC)cc(CC(CC=C)(C(=O)OCC)C(=O)OCC)c1)(C(=O)OCC)C(=O)OCC", "96 % of control"),
    ("Cc1cc(C)c(Sc2cc(C)sc2C)c(C)c1", "100 % of control"),
    ("O=C1/C(=C/c2cccc([N+](=O)[O-])c2)CCc2ccccc21", "96 % of control"),
    ("COCCCNP(=O)(OC)OC", "95 % of control"),
    ("CCCc1nc2c(OC)ccc(OC)c2nc1C", "98 % of control"),
]

---

Test system: L1210 leukemia ip in BDF1 mice, survival T/C
Assay: NCI In Vivo Anticancer Drug Screen. Data for tumor model L1210 Leukemia (intraperitoneal) in B6D2F1 (BDF1) mice
Details: endpoint: mean survival time; dose: 400.0 mg/kg/injection; schedule: Q04DX002 (ip); vehicle: saline with Tween-80; higher = longer survival
Toxic doses and inconclusive results are not listed.
Measurement Type: T/C

# Compound, Measurement Type, Result
rows = [
    ("COc1ccc(N=Cc2cc(Br)ccc2O)cc1", "T/C", "100 % of control"),
    ("CCC1(CCC#N)CCc2[nH]c3ccccc3c2C1=O (stereo not given)", "T/C", "87 % of control"),
    ("CCOC(=O)OCc1ccccc1", "T/C", "102 % of control"),
    ("CCCCC(CC)(CC)OC(=O)c1ccc([N+](=O)[O-])cc1", "T/C", "98 % of control"),
    ("O=C1CCC/C1=C/c1ccco1", "T/C", "94 % of control"),
    ("CN(C)C(=S)SCC(=O)O", "T/C", "100 % of control"),
    ("CN(C(=O)c1ccccc1Cl)C(c1ccco1)P(=O)(c1ccccc1)c1ccccc1 (stereo not given)", "T/C", "90 % of control"),
    ("C=CCCCCCCCCC", "T/C", "104 % of control"),
    ("NC(=S)N/N=C/c1ccns1", "T/C", "103 % of control"),
    ("CCOc1nc(N)nc(N)c1-c1ccccc1", "T/C", "100 % of control"),
    ("C[CH2][Ge]([CH2]C)[CH2]C.C[CH2][Ge]([CH2]C)[CH2]C", "T/C", "92 % of control"),
    ("O=C(Nc1ccc(Cl)cc1)C(c1ccccc1)c1ccccc1", "T/C", "100 % of control"),
    ("N#C/C(=C\\C1CC(Br)CC(Br)C1O)C1CCC([N+](=O)[O-])CC1 (stereo not given)", "T/C", "93 % of control"),
    ("Cc1cc(OC(=O)Nc2cccc(Cl)c2C)ccc1[N+](=O)[O-]", "T/C", "93 % of control"),
    ("CN1CCN(P(c2ccccc2)N2CCN(C)CC2)CC1", "T/C", "95 % of control"),
]

---

Tested on: L1210 leukemia ip in BDF1 mice, survival T/C
Experiment: NCI In Vivo Anticancer Drug Screen. Data for tumor model L1210 Leukemia (intraperitoneal) in B6D2F1 (BDF1) mice
Conditions: endpoint: mean survival time; dose: 200.0 mg/kg/injection; schedule: Q01DX009 (ip); vehicle: Klucel (hydroxypropylcellulose) (HPC); higher = longer survival
Toxic doses and inconclusive results are not listed.
T/C listing for selected compounds.

# Compound, T/C
records = [
    ("Cc1ccc(Oc2c3c(nc4ccccc24)CCCC3)cc1", "98 % of control"),
    ("CCOC(=O)c1cnc(SC)nc1Nc1ccccc1[N+](=O)[O-]", "94 % of control"),
    ("C=C(C)COc1ccccc1", "102 % of control"),
    ("O=C(NCCCl)NC1c2cc(Cl)ccc2-c2c(Cl)cc(Cl)cc21 (stereo not given)", "90 % of control"),
    ("Cc1[nH]c(N)nc(=S)c1CCC(=O)O", "96 % of control"),
    ("O=C(/C(=N/O)c1ccc(Cl)cc1)c1ccccc1", "107 % of control"),
    ("Cc1ccc(NC(=S)N2CCCCC2)cc1C", "93 % of control"),
    ("COc1ccc(C)cc1NC(=O)c1c(Br)c(Br)c(Br)c(Br)c1C(=O)O", "92 % of control"),
    ("COc1ccc(/C=N/Nc2c([N+](=O)[O-])cc(C)cc2[N+](=O)[O-])cc1", "100 % of control"),
    ("Cc1cccc(NC(=O)c2cccc(C(=O)Nc3cccc(C)c3C)c2)c1C", "100 % of control"),
    ("CCN(C(=O)Nc1ccc(SC)cc1)c1ccccc1", "108 % of control"),
    ("CCCc1nc2c(OC)ccc(OC)c2nc1C", "86 % of control"),
    ("COc1ccc(C)cc1NC(=O)c1ccc(F)cc1", "97 % of control"),
    ("COC(=O)c1nccnc1N", "108 % of control"),
    ("CC1=CC(=O)C=CC1(C)C", "94 % of control"),
    ("CCCCCCCN(CCCCCCC)CC(O)c1cc2ccc(Cl)cc2nc1-c1ccc(Cl)cc1 (stereo not given)", "97 % of control"),
    ("COc1cc(-c2cc(-c3ccccc3)c3ccccc3n2)cc(OC)c1OC", "100 % of control"),
    ("Nc1ccccc1Oc1ccccc1", "97 % of control"),
    ("Brc1ccc(C=C2c3ccccc3-c3ccccc32)cc1", "97 % of control"),
    ("CNc1ccc(S(=O)(=O)O)cc1", "103 % of control"),
    ("COC(=O)CCCCCCCCCC(=O)OC", "96 % of control"),
    ("Cc1ccc(-c2cc3ccccc3[nH]2)cc1", "86 % of control"),
    ("CCOc1ccc(NC(=O)Nc2ccccc2OC)cc1", "95 % of control"),
    ("COc1ccc(C(=O)NC(=S)Nc2cccc(C)c2C)cc1", "102 % of control"),
    ("CN(C)NC(=O)/C=C/c1ccccc1", "102 % of control"),
]

---

Parameter T/C: see the listing below.
System: L1210 leukemia ip in BDF1 mice, survival T/C
Test: NCI In Vivo Anticancer Drug Screen. Data for tumor model L1210 Leukemia (intraperitoneal) in B6D2F1 (BDF1) mice
Conditions: endpoint: mean survival time; dose: 200.0 mg/kg/injection; schedule: Q01DX009 (ip); vehicle: Klucel (hydroxypropylcellulose) (HPC); higher = longer survival
Toxic doses and inconclusive results are not listed.

# Compound, T/C
data = [
    ("COc1ccc(C(=O)N/N=C/c2ccco2)cc1", "86 % of control"),
    ("CCON=C1C(C)(C)C(C)(C)C(C)(C)C1(C)C", "95 % of control"),
    ("CN/N=C1\\CCC2C3CCc4cc(O)ccc4C3CCC12C (configuration not stated)", "89 % of control"),
    ("CN(C)c1ccc(/C=C2/CCCCC2=O)cc1", "109 % of control"),
    ("Cc1ccc(NC(=O)OCCOc2cc(C)c(Cl)c(C)c2)c([N+](=O)[O-])c1", "91 % of control"),
    ("Nc1nc(N)c(CCCCc2ccccc2)c(-c2ccccc2)n1", "95 % of control"),
    ("Cc1ccccc1NC(=O)Oc1ccc2c(C)cc(=O)oc2c1", "100 % of control"),
    ("O=c1c2ccccc2[nH]c(=S)n1-c1cccc(C(F)(F)F)c1", "97 % of control"),
    ("Cc1noc(C)c1CC1(c2ccccc2)CCCCC1=O (configuration not stated)", "95 % of control"),
    ("O=C(O)CN1C(=O)c2cccc([N+](=O)[O-])c2C1=O", "100 % of control"),
    ("O=C(COc1cc(Cl)c(Cl)cc1Cl)Nc1cccc(O)c1", "96 % of control"),
    ("Cc1cc(C)c(C(=O)C=O)c(C)c1", "95 % of control"),
]

---

System: L1210 leukemia ip in BDF1 mice, survival T/C
Experiment: NCI In Vivo Anticancer Drug Screen. Data for tumor model L1210 Leukemia (intraperitoneal) in B6D2F1 (BDF1) mice
Conditions: endpoint: mean survival time; dose: 100.0 mg/kg/injection; schedule: Q01DX009 (ip); vehicle: Klucel (hydroxypropylcellulose) (HPC); higher = longer survival
Inconclusive results and toxic doses are left out.

# Molecule, Tested Target, T/C
records = [
    ("O=C1NC(=O)C2(CCc3ccccc32)N1 (centres undefined)", "L1210 leukemia ip in BDF1 mice, survival T/C", "100 % of control"),
    ("CC(=O)c1cccc(NC(=O)Nc2ccc(I)cc2)c1", "L1210 leukemia ip in BDF1 mice, survival T/C", "97 % of control"),
    ("O=NC1C(Cl)C2CC1C1C(Br)C(Br)CC21 (centres undefined)", "L1210 leukemia ip in BDF1 mice, survival T/C", "88 % of control"),
    ("CCCCC(/C=C1/CCCCC1=O)CC (centres undefined)", "L1210 leukemia ip in BDF1 mice, survival T/C", "97 % of control"),
    ("CCCCOC(OCCCC)C(C)=O", "L1210 leukemia ip in BDF1 mice, survival T/C", "96 % of control"),
    ("O=S(=O)(F)c1cc(Cl)c(S)c(Cl)c1", "L1210 leukemia ip in BDF1 mice, survival T/C", "100 % of control"),
    ("CC(C)(C)NC(=O)Nc1cccc(C(=O)O)c1", "L1210 leukemia ip in BDF1 mice, survival T/C", "97 % of control"),
    ("COc1ccc([N+](=O)[O-])cc1NC(=O)c1ccc(Cl)cc1", "L1210 leukemia ip in BDF1 mice, survival T/C", "94 % of control"),
    ("O=C(O)/C(=C\\c1ccc(Cl)cc1)c1cccc2ccccc12", "L1210 leukemia ip in BDF1 mice, survival T/C", "98 % of control"),
    ("O=C(O)/C=C/c1ccccc1Br", "L1210 leukemia ip in BDF1 mice, survival T/C", "102 % of control"),
    ("CC(=O)Nc1ccc(S(N)(=O)=O)cc1", "L1210 leukemia ip in BDF1 mice, survival T/C", "103 % of control"),
    ("[N-]=[N+]=C1Cc2ccccc2C1=O", "L1210 leukemia ip in BDF1 mice, survival T/C", "103 % of control"),
    ("CC1(C)CN=C(c2cccc([N+](=O)[O-])c2)O1", "L1210 leukemia ip in BDF1 mice, survival T/C", "98 % of control"),
    ("O=C(/C(=N/O)c1ccc(Cl)cc1)c1ccccc1", "L1210 leukemia ip in BDF1 mice, survival T/C", "96 % of control"),
]
